Values from patent US20130109646A1

Tested on: intraocular pressure
Test description: Test for intraocular pressure reduction using cynomolgus monkeys
Assay type: in vivo
Condition description: male cynomolgus monkeys; 0.1% (w/v) test liquid instilled into one eye twice a day for 7 days; maximum over 2, 4, 6, 8 h after administration (Compound B: pH 7, 1, 2, 4, 6 h); average of 5 to 6 cases
Below, each of the compounds is paired with its reported Maximum intraocular pressure reduction degree value.
Give the value, in units of mmHg, as a plain number.

Guide cases for Maximum intraocular pressure reduction degree, answers given:
COc1ccc(OC(=O)N2CCC(CC#Cc3nc(N)c4ncn([C@@H]5O[C@H](C(=O)NC6CC6)[C@@H](O)[C@H]5O)c4n3)CC2)cc1 [Compound H] | 2.3
CCNC(=O)[C@H]1O[C@@H](n2cnc3c(N)nc(C#CCC4CCN(C(=O)OC)CC4)nc32)[C@H](O)[C@@H]1O [Compound C] | 2.7

Next compound, Maximum intraocular pressure reduction degree to be filled in.
Asked: Supply Maximum intraocular pressure reduction degree value. Item: CCNC(=O)[C@H]1O[C@@H](n2cnc3c(N)nc(C#CCC4CCC(C(=O)OC)CC4)nc32)[C@H](O)[C@@H]1O (stereo partly drawn) [Compound B]
Given back: 2.2
